Provide the recorded growth AUC normalised to DMSO control for the entries that follow.
system: Yersinia pseudotuberculosis; assay: growth AUC normalised to DMSO control (fraction of control); higher = less growth inhibition, active = hit call of the paper; conditions: 20 µM
Where a name gives a salt, the structure may show the parent alone.
Numbers only.

Some entries whose results are on file:
molecule	growth AUC normalised to DMSO control
CN(C)C(=O)C(CCN1CCC(O)(c2ccc(Cl)cc2)CC1)(c1ccccc1)c1ccccc1 [Loperamide hydrochloride]	0.988
CN1C(=O)CC(c2ccccc2)C1=O (stereo not drawn) [Phensuximide]	1.02
CN1CCN(c2c(F)cc3c(=O)c(C(=O)O)cn(CCF)c3c2F)CC1 [Fleroxacin]	0.0196
CC(=O)CC(c1ccccc1)c1c(O)c2ccccc2oc1=O (stereo not drawn) [Warfarin]	0.999
CCOC(=O)OC(C)OC(=O)[C@@H]1N2C(=O)[C@@H](NC(=O)[C@H](N)c3ccccc3)[C@H]2SC1(C)C (stereo partly drawn) [Bacampicillin hydrochloride]	0.277

// each molecule listed below needs its growth AUC normalised to DMSO control
1. Cc1nc2n(c(=O)c1CCN1CCC(c3noc4cc(F)ccc34)CC1)CCCC2 [Risperidone]
2. O=C(O)CCC(=O)Nc1ccc(S(=O)(=O)Nc2nccs2)cc1 [Succinylsulfathiazole]
3. Clc1ccc(CSC(Cn2ccnc2)c2ccc(Cl)cc2Cl)cc1 (stereo not drawn) [Sulconazole nitrate]
4. CC(C)(C)NC[C@@H](O)COc1cccc2c1CCCC2=O [(+) Levobunolol hydrochloride]

1
1
1.02
0.987

// each molecule listed below needs its growth AUC normalised to DMSO control
1. Cc1cc(=O)n(-c2ccccc2)n1C [Antipyrine]
2. C[N+]1(C)CCC(=C(c2ccccc2)c2ccccc2)CC1 [Diphemanil methylsulfate]

[1, 1.02]

// each molecule listed below needs its growth AUC normalised to DMSO control
1. N=C(N)NCc1cccc(I)c1 [Iobenguane sulfate]
2. N=c1nc(N2CCCCC2)cc(N)n1O [Minoxidil]
3. CC1Cc2ccccc2N1NC(=O)c1ccc(Cl)c(S(N)(=O)=O)c1 (stereo not drawn) [Indapamide]
4. Nc1ccc(S(=O)(=O)c2ccc(N)cc2)cc1 [Dapsone]
5. NC(CO)C(=O)NNCc1ccc(O)c(O)c1O (stereo not drawn) [Benserazide hydrochloride]
6. COc1ccc([C@@H]2CC(=O)c3c(O)cc(O[C@@H]4O[C@H](CO[C@@H]5O[C@@H](C)[C@H](O)[C@@H](O)[C@H]5O)[C@@H](O)[C@H](O)[C@H]4O)cc3O2)cc1O [Hesperidin]

1. 1.01
2. 0.974
3. 0.992
4. 1
5. 0.942
6. 1.01

Request body: readout growth AUC normalised to DMSO control, system Yersinia pseudotuberculosis, query Nc1c(Br)cc(Br)cc1CN[C@H]1CC[C@H](O)CC1 [Ambroxol hydrochloride] . Return the value.
1

---

Provide the recorded growth AUC normalised to DMSO control for the entries that follow.
test system: Yersinia pseudotuberculosis; test: growth AUC normalised to DMSO control (fraction of control); higher = less growth inhibition, active = hit call of the paper; settings: 20 µM
Counter-ions that a name gives are not always drawn.

compound	result
COc1ccc2cc(CCC(C)=O)ccc2c1 [Nabumetone]	0.999 (inactive)
CC(=O)O[C@H]1C[C@@H]2CC[C@@H]3[C@H](CC[C@@]4(C)[C@H]3C[C@H]([N+]3(C)CCCCC3)[C@@H]4OC(C)=O)[C@@]2(C)C[C@@H]1N1CCCCC1 [Vecuronium bromide]	1.02 (inactive)
CCCCNC(=O)NS(=O)(=O)c1ccc(C)cc1 [Tolbutamide]	0.998 (inactive)
COc1ccc(C(Cl)=C(c2ccc(OC)cc2)c2ccc(OC)cc2)cc1 [Chlorotrianisene]	1.01 (inactive)
C#C[C@]1(O)CC[C@H]2[C@@H]3CCc4cc(O)ccc4[C@H]3CC[C@@]21C [Ethinylestradiol]	1.03 (inactive)

// each compound listed below needs its growth AUC normalised to DMSO control
1. O=C1CN(/N=C/c2ccc(-c3ccc([N+](=O)[O-])cc3)o2)C(=O)N1 [Dantrolene sodium salt]
2. CCOc1ccc2ccccc2c1C(=O)N[C@@H]1C(=O)N2[C@@H]1SC(C)(C)[C@@H]2C(=O)O [Nafcillin sodium salt monohydrate]

1. 0.986 (inactive)
2. 0.967 (inactive)

---

tested on: S. enterica typhimurium tolC KO; test: growth AUC normalised to DMSO control (median) (fraction of control); higher = less growth inhibition, active = hit call of the paper; details: 20 µM;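 note: active when median AUC fell below 0.1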
Counter-ions that a name gives are not always drawn.
measuredAttribute: growth AUC normalised to DMSO control

Some entries whose results are on file:
molecule	system	growth AUC normalised to DMSO control
C[C@@H]1CCO[C@H]2Cn3cc(C(=O)NCc4ccc(F)cc4F)c(=O)c(O)c3C(=O)N12	S. enterica typhimurium tolC KO	0.907 (inactive)
CCCCOc1cc(C(=O)NCCN(CC)CC)c2ccccc2n1	S. enterica typhimurium tolC KO	0.993 (inactive)
CCC(=O)OCC(=O)[C@@]1(OC(=O)CC)[C@@H](C)C[C@H]2[C@@H]3CCC4=CC(=O)C=C[C@]4(C)[C@@]3(Cl)[C@@H](O)C[C@@]21C [Beclomethasone dipropionate]	S. enterica typhimurium tolC KO	0.975 (inactive)
O=C(NCCCN1CCOCC1)c1ccc(Cl)cc1 [Eprobemide]	S. enterica typhimurium tolC KO	1 (inactive)
CC(C)(C)C(=O)OCOC(=O)[C@@H]1N2C(=O)[C@@H](NC(=O)[C@H](N)c3ccccc3)[C@H]2SC1(C)C	S. enterica typhimurium tolC KO	1 (inactive)
CC(=O)Oc1ccc(C(=C2CCCCC2)c2ccc(OC(C)=O)cc2)cc1	S. enterica typhimurium tolC KO	0.972 (inactive)
C[C@H](NCc1ccc(OCc2cccc(F)c2)cc1)C(N)=O [Safinamide]	S. enterica typhimurium tolC KO	1 (inactive)

Attention now shifts to the item below.
Record request: growth AUC normalised to DMSO control value, item N=C(N)N1CCc2ccccc2C1 [Debrisoquin sulfate]
1 (inactive)

---

system: Salmonella enterica typhimurium; assay: growth AUC normalised to DMSO control (fraction of control); higher = less growth inhibition, active = hit call of the paper; settings: 20 µM
Where a name gives a salt, the structure may show the parent alone.
Provide the recorded growth AUC normalised to DMSO control for the entries that follow.
Answers are plain numbers.

Some entries whose results are on file:
                                   compound                           system  measurednumber
0  CN1CCN(C(c2ccccc2)c2ccc(Cl)cc2)CC1 (centres undefined) [Chlorcyclizine hydrochloride]  Salmonella enterica typhimurium               1
1  CCCCC(=O)O[C@H]1CC[C@H]2[C@@H]3CCc4cc(O)ccc4[C@H]3CC[C@]12C [Estradiol Valerate]  Salmonella enterica typhimurium            1.05
2        CCCN(CCC)S(=O)(=O)c1ccc(C(=O)O)cc1  Salmonella enterica typhimurium            1.02

Attention now shifts to the item below.
Request body: readout growth AUC normalised to DMSO control, system Salmonella enterica typhimurium, query CC1(C)NC(=O)N(c2ccc([N+](=O)[O-])c(C(F)(F)F)c2)C1=O [Nilutamide] . Return the value.
0.928

---

test system: Vibrio cholerae; test: growth AUC normalised to DMSO control (fraction of control); higher = less growth inhibition, active = hit call of the paper; details: 20 µM
Counter-ions that a name gives are not always drawn.
measuredAttribute: growth AUC normalised to DMSO control
One number for each entry.

Some entries whose results are on file:
compound	measuredNumber
CC(=O)N[C@@H](CC(=O)O)C(=O)N[C@@H](CCC(=O)O)C(=O)O	1.02
CN[C@@H]1[C@@H](O)[C@@H](O[C@@H]2[C@@H](O)[C@H](O[C@H]3OC(CN)=CC[C@H]3N)[C@@H](N)C[C@H]2N)OC[C@]1(C)O [Sisomicin sulfate]	0.996
OCCN1CCN(CCCN2c3ccccc3Sc3ccc(Cl)cc32)CC1	0.91
CCn1cc(C(=O)O)c(=O)c2ccc(C)nc21 [Nalidixic acid sodium salt]	0.035

// each compound listed below needs its growth AUC normalised to DMSO control
1. C=C(CC)C(=O)c1ccc(OCC(=O)O)c(Cl)c1Cl
2. CC1(C)S[C@@H]2[C@H](NC(=O)[C@H](N)c3ccc(O)cc3)C(=O)N2[C@H]1C(=O)O
3. COc1cc(C(=O)NCc2ccc(OCCN(C)C)cc2)cc(OC)c1OC [Trimethobenzamide hydrochloride]
4. COc1ccc2c3c1O[C@H]1C[C@@H](O)C=C[C@@]31CCN(C)C2 [Galanthamine hydrobromide]
5. CC(=O)O[C@]1(C(C)=O)CC[C@H]2[C@@H]3C=C(C)C4=CC(=O)CC[C@@H]4[C@H]3CC[C@@]21C [Nomegestrol acetate]
6. CCOC(=O)C(C)(C)Oc1ccc(Cl)cc1 [Clofibrate]
7. CN/C(=N\CCSCc1nc[nH]c1C)NC#N
8. C#C[C@]1(O)CC[C@H]2[C@@H]3CCC4=Cc5oncc5C[C@]4(C)[C@H]3CC[C@@]21C

[1.02, 0.68, 1.05, 0.986, 1.06, 1.03, 1, 0.991]

// each compound listed below needs its growth AUC normalised to DMSO control
1. CC(=O)O[C@@]12CO[C@@H]1C[C@H](O)[C@@]1(C)C(=O)[C@H](O)C3=C(C)[C@@H](OC(=O)[C@H](O)[C@@H](NC(=O)OC(C)(C)C)c4ccccc4)C[C@@](O)([C@@H](OC(=O)c4ccccc4)[C@H]21)C3(C)C
2. Clc1cc(Cl)c(OCC#CI)cc1Cl

[1.07, 1.05]

Record request: growth AUC normalised to DMSO control value, item CC(C)(O)c1ccccc1CC[C@@H](SCC1(CC(=O)O)CC1)c1cccc(/C=C/c2ccc3ccc(Cl)cc3n2)c1
1.05
